B1: library; a variant is named by its letters at N, in order (parent)
chain: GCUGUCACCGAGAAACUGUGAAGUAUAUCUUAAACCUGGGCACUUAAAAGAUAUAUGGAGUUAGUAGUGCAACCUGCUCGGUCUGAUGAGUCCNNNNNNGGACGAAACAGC

# Variants of: B1
# experiment.notes: FACS-Seq fitted mean relative fluorescence mCherry/BFP without ligand (log10 relative fluorescence); HEK293T; ligand: cyclic di-GMP (c-di-GMP-II aptamer); higher = higher reporter protein expression
# settings: ligand present: no
Exercise: for every item that follows, state its recorded FACS-Seq fitted mean (log10).
Respond numerically, and do not add a unit to the figure.

Please report the recorded FACS-Seq fitted mean (log10) for `UUAAUG` .
-0.155

FACS-Seq fitted mean (log10) for `AUCUAC` ?
-0.188

Would you kindly share the measured FACS-Seq fitted mean (log10) for `UGUAUA` ?
-0.0844

Form field: reported FACS-Seq fitted mean (log10) of `UUAUGA`
-0.781

I would be grateful if you could share the reported FACS-Seq fitted mean (log10) for `AAACGG` .
-0.275

I would be grateful if you could share the reported FACS-Seq fitted mean (log10) for `AAGACA` .
-0.415

Entry `CGCCUU` : reported FACS-Seq fitted mean (log10) = ?
-0.439

Which FACS-Seq fitted mean (log10) is reported for this variant? `GAAAUA`
0.098

Give the measured FACS-Seq fitted mean (log10) of `UAAUGC` .
-0.174

# FACS-Seq fitted mean (log10) lookup, item `UCGGAU`
-0.57

Give the measured FACS-Seq fitted mean (log10) of `GAAGCA` .
-0.476

Please report the recorded FACS-Seq fitted mean (log10) for `AGCAGA` .
-0.373

For the variant `CCCCCA` , what FACS-Seq fitted mean (log10) is on record?
-0.0821

Give its FACS-Seq fitted mean (log10) value. Item: `UUGAUG`
-0.523

Can you share its FACS-Seq fitted mean (log10)? I mean this variant: `AACGCC`
-0.235

Requested field: FACS-Seq fitted mean (log10). Item: `CCGCUU`
-0.424

Quick one: FACS-Seq fitted mean (log10) of `UUCAAU` ?
-0.187

What does the record list as FACS-Seq fitted mean (log10) for `AUUAUC` ?
-0.473

// FACS-Seq fitted mean (log10) lookup, key: `CCAAGU`
-0.377

Param item = `AGUAAG` ; retrieve measured FACS-Seq fitted mean (log10).
-0.172

Item under review: `CUAACU` . Reported FACS-Seq fitted mean (log10)?
-0.381

Look up FACS-Seq fitted mean (log10): `AAAAGC`
0.0679

If you can, please state the reported FACS-Seq fitted mean (log10) value of `AAUGGG` .
-0.71

Any idea what its FACS-Seq fitted mean (log10) is? The variant is `GCAUAG`
-0.627

For `GACACU` , what is its reported FACS-Seq fitted mean (log10)?
-0.276

State the recorded FACS-Seq fitted mean (log10) for this entry: `ACGUAU`
-0.637

Recorded FACS-Seq fitted mean (log10) of `GAUCAU` , please.
-0.326

What value of FACS-Seq fitted mean (log10) has been reported for the following variant? `CUGGAA`
-0.647

Tell me the measured FACS-Seq fitted mean (log10) of `CGCAAU` , please.
-0.449

So what does the record say about FACS-Seq fitted mean (log10) for `UGUACC` ?
0.263

Fill in: FACS-Seq fitted mean (log10) of `AACGGA` is ___
-0.525

// lookup FACS-Seq fitted mean (log10) for `GCAAUG`
-0.186

Name the reported FACS-Seq fitted mean (log10) value associated with the variant `ACUAAG`
-0.34

Reported FACS-Seq fitted mean (log10), variant `GAUCAA` : ____
-0.23

Any idea what its FACS-Seq fitted mean (log10) is? The variant is `ACAAAU`
-0.483

Looking for the measured FACS-Seq fitted mean (log10) of `UAGGGU` , can you help?
-0.424

Param item = `AACCUU` ; retrieve measured FACS-Seq fitted mean (log10).
-0.0813

// lookup FACS-Seq fitted mean (log10) for `UAUAGA`
-0.453

Item under review: `AAUACG` . Reported FACS-Seq fitted mean (log10)?
-0.6

Recorded FACS-Seq fitted mean (log10) of `CGUCUC` , please.
0.2

So what does the record say about FACS-Seq fitted mean (log10) for `UAAUCU` ?
-0.884

Param item = `UCCUCG` ; retrieve measured FACS-Seq fitted mean (log10).
0.369

Entry under review: `CUUAUA` . Reported FACS-Seq fitted mean (log10)?
-0.487

Bench note: what FACS-Seq fitted mean (log10) did `GCGGAG` show?
-0.301

Request the reported FACS-Seq fitted mean (log10) associated with `GUAGAA`
-0.503

# get_value(readout='FACS-Seq fitted mean (log10)', item= `UAACUU` )
-0.637

What value of FACS-Seq fitted mean (log10) has been recorded for this entry: `UCGAGU`
-0.395

Please look up its FACS-Seq fitted mean (log10): `CUGUCA`
-0.00992

// returns reported FACS-Seq fitted mean (log10) for input `CGAUGA`
-0.364

Using the record for `GUUCUA` , report its FACS-Seq fitted mean (log10).
-0.743

Record request: FACS-Seq fitted mean (log10) value, item `UCGGCU`
-0.103
